molecular target: Cytochrome P450 3A4 (Homo sapiens) (UniProt P08684); assay: Cytochrome panel assay with activity outcomes; settings: recombinant CYP, pro-luciferin dealkylation, luminescence, p450-cyp3a4; series mostly up to 57.1 µM
Sequence (P08684 whole entry, looked up): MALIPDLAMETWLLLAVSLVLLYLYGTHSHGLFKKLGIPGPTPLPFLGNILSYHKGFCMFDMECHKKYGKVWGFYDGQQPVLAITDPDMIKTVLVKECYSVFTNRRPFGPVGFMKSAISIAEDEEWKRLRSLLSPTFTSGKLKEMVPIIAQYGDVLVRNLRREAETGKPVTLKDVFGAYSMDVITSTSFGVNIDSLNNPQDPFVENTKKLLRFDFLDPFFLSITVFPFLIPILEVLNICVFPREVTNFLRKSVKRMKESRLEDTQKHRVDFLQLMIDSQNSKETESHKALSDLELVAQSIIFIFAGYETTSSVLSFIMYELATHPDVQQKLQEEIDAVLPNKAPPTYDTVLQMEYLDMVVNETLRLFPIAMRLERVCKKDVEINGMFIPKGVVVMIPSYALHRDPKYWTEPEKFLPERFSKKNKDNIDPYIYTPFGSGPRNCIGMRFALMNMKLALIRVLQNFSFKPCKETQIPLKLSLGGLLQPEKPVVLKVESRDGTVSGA
In all, about 16,000 compounds went through this assay and about 5,100 (32%) were called active. Inconclusive results (about 25%) are left out. Calls follow the shape of the dose curve; as a rule, active = well fitted curve in the direction sought with a large enough effect; inconclusive = small, poorly fitted or top-dose-only effect, or effect the other way; inactive = no such curve, though single readings can be large or run the other way. The list shows a part of the results.
Outcomes: active, inactive

{"molecule": "Cc1ccc(C(=O)NC(=S)Nc2cccc3nsnc23)cc1", "assigned-label": "inactive"}
{"molecule": "CN(C)c1ncc2ncc(=O)n(CCc3ccccc3)c2n1", "assigned-label": "inactive"}
{"molecule": "CCOC(=O)c1c(C)[nH]c(C(=O)OCC(=O)NC2CCS(=O)(=O)C2)c1C (stereo not drawn)", "assigned-label": "inactive"}
{"molecule": "COCCn1c(=O)c(C)nc2cnc(N(C)C)nc21", "assigned-label": "inactive"}
{"molecule": "CS/C(N)=N/N=C/c1ccc([N+](=O)[O-])cc1", "assigned-label": "inactive"}
{"molecule": "COc1ccc(-c2cc(C(F)(F)F)nc(NCc3cccnc3)n2)cc1", "assigned-label": "active"}
{"molecule": "c1ccc(-c2noc(-c3ccc4ccccc4c3)n2)cc1", "assigned-label": "inactive"}
{"molecule": "CC(=O)NN1C(=O)/C(=C\\c2ccc(C)cc2)SC1=S", "assigned-label": "inactive"}
{"molecule": "CCC(C)(C(=O)NC1CCCC1)N(C(=O)c1ccccn1)c1ccccc1 (stereo not drawn)", "assigned-label": "active"}
{"molecule": "Cc1ccc(NC(=O)/C(=C\\c2ccc([N+](=O)[O-])cc2)NC(=O)c2ccccc2)cc1", "assigned-label": "active"}
{"molecule": "COc1ccc(S(=O)(=O)NNC(=O)C2Cc3c(ccc4ccccc34)O2)cc1 (stereo not drawn)", "assigned-label": "active"}
{"molecule": "CN(C)c1ncc2nc(CCc3ccccc3)c(=O)n(Cc3cccs3)c2n1", "assigned-label": "active"}
{"molecule": "CCn1c(=O)cc(OCC(=O)Nc2cccnc2)c2ccccc21", "assigned-label": "active"}
{"molecule": "Cc1ccc(NC(=O)/C(=C/c2cccc([N+](=O)[O-])c2)NC(=O)C2CCCCC2)c(C)c1", "assigned-label": "active"}
{"molecule": "N#Cc1ccc(Oc2nc(C(N)=O)cc(-c3ccccc3)n2)cc1", "assigned-label": "inactive"}
{"molecule": "C[N+]1(CCOc2ccc([N+](=O)[O-])cc2)CCOCC1", "assigned-label": "inactive"}
{"molecule": "CCn1c(=O)cc(SCC(=O)N2CCN(C(=O)c3ccco3)CC2)c2ccccc21", "assigned-label": "active"}
{"molecule": "COc1ccc(C=NC(CO)C(O)c2ccc([N+](=O)[O-])cc2)cc1 (stereo not drawn)", "assigned-label": "active"}

* * *

molecular target: Cytochrome P450 3A4 (Homo sapiens) (UniProt P08684); test: Cytochrome panel assay with activity outcomes; details: recombinant CYP, pro-luciferin dealkylation, luminescence, p450-cyp3a4; series mostly up to 57.1 µM
Among all 16,000 compounds or so, about 5,100 (32%) were called active. Roughly 25% stayed inconclusive and do not appear here. Calls follow the shape of the dose curve; as a rule, active = well fitted curve in the direction sought with a large enough effect; inconclusive = small, poorly fitted or top-dose-only effect, or effect the other way; inactive = no such curve, though single readings can be large or run the other way. This is one part of the list.
Outcomes: label 1 = active, label 0 = inactive

{"molecule": "COc1ccccc1CN1CC2(CCN(S(=O)(=O)c3ccccc3)CC2)C1", "assigned-label": "label 1"}
{"molecule": "CCCC[C@@H]1C[C@H]1C(NC(=O)c1ccccc1)c1ccccc1 (stereo not given in full)", "assigned-label": "label 1"}
{"molecule": "COc1ccccc1CN1CC2(CCN(S(C)(=O)=O)CC2)C1", "assigned-label": "label 0"}
{"molecule": "COc1ccccc1CN1CC[C@@]2(CCCN(S(=O)(=O)c3ccccc3)C2)C1", "assigned-label": "label 1"}
{"molecule": "COc1ccccc1CN1CCCC2(CCN(S(C)(=O)=O)CC2)C1", "assigned-label": "label 0"}
{"molecule": "CCCC[C@@H]1C[C@H]1C(NC(=O)Cc1ccccc1)c1ccc(Cl)cc1 (stereo not given in full)", "assigned-label": "label 1"}
{"molecule": "CC12CCC(C(=O)O)(C/C1=N\\O)C2(C)C (stereo not given)", "assigned-label": "label 0"}
{"molecule": "c1cncc(CNc2ncncc2-c2cccnc2)c1", "assigned-label": "label 1"}
{"molecule": "CN(C)c1ncc2nc(-c3cc(F)cc(F)c3)c(=O)n(CCc3ccccc3)c2n1", "assigned-label": "label 0"}
{"molecule": "CCOC(=O)N1CCN(C(=O)c2cnc3n(c2=O)CCS3)CC1", "assigned-label": "label 0"}
{"molecule": "Cc1c(C)c2c(c(C)c1O)CC[C@@](C)(CCC[C@@H](C)CCC[C@@H](C)CCCC(C)C)O2", "assigned-label": "label 0"}
{"molecule": "CCN(CC)CCCNC(=O)C1CCC(=O)N(c2ccc(OC)cc2)C1c1ccc(F)cc1 (stereo not given)", "assigned-label": "label 1"}
{"molecule": "CCCC[C@@H]1C[C@H]1C(NC(=O)c1ccc(-c2ccccc2)cc1)c1ccc(-c2ccccc2)cc1 (stereo not given in full)", "assigned-label": "label 0"}
{"molecule": "C/C(O)=C\\c1nc2ccccc2oc1=O", "assigned-label": "label 0"}
{"molecule": "CCOC(=O)N1CCN(C(=O)CCn2nc(-c3ccccc3)ccc2=O)CC1", "assigned-label": "label 0"}

Data credit: PubChem BioAssay AID1851
